tested on: Staphylococcus aureus (MRSA only); experiment: MIC against a single isolate (Example 26); assay type: cell-based; settings: single isolate, read-out: S. aureus MIC
Entries and their MIC
# number only, unit µg/mL dropped from output

| Molecule | Quantitative readout |
| --- | --- |
| CCCCOP(=O)(O)OC[C@H]1O[C@@H](n2cnc3c(N)ncnc32)[C@H](OC)[C@@H]1OP(=O)(O)OCCCC [LAI-106] | 5000 |

Now look at this one.
In: Which measured MIC belongs to CCCCOP(=O)(O)OC[C@H]1O[C@@H](n2ccc(N)nc2=O)[C@H](OC)[C@@H]1OP(=O)(O)OCCCC [Nu-10] , tested on Staphylococcus aureus (MRSA only)?
Out: 5000

###

test: pKa measurement; assay type: physicochemical
Outcome measure: pKa
# print the numeric value only

In: # query: pKa of entry CCCCOP(=O)(O)OC[C@H]1O[C@@H](n2ccc(N)nc2=O)C[C@@H]1OP(=O)(O)OCCCC [Nu-8]
Out: 3.2

###

experiment: Solubility; type: physicochemical; conditions: unit inferred
Outcome measure: solubility
Lab note: write values as number then unit, every time.

In: # query: solubility of entry CCCCOP(=O)(O)OC[C@H]1O[C@@H](n2ccc(N)nc2=O)C[C@@H]1OP(=O)(O)OCCCC [Nu-8]
Out: 137 mg/mL

###

tested on: E. coli ATCC 25922; assay: Bacterial cytological profiling (Example 6), E. coli; type: cell-based; conditions: higher treatment concentrations, buffered pH 4

| Compound | DNA condensation |
| --- | --- |
| CCCCOP(=O)(O)OC[C@H]1O[C@@H](n2ccc(N)nc2=O)C[C@@H]1OP(=O)(O)OCCCC | causes DNA condensation |
| CCCCOP(=O)(O)OC[C@H]1O[C@@H](n2cc(C)c(=O)[nH]c2=O)C[C@@H]1OP(=O)(O)OCCCC [Nu-3, reference compound] | causes DNA condensation |
| CCCCOP(=O)(O)OCCOCCOP(=O)(O)OCCCC | causes DNA condensation |
| CCCCOP(=O)(O)OC[C@H]1O[C@@H](n2cc(C)c(=O)[nH]c2=O)C[C@H]1OP(=O)(O)OCCCC | causes DNA condensation |

###

system: Staphylococcus aureus (MRSA only); experiment: MIC against a single isolate (Example 26); format: cell-based; conditions: single isolate, read-out: S. aureus MIC
Outcome measure: MIC

See these solved cases before continuing.
| Compound | Result |
| --- | --- |
| CCCCOP(=O)(O)OC[C@H]1O[C@@H](n2ccc(N)nc2=O)C[C@@H]1OP(=O)(O)OCCCC | > 50 mg/mL |
| CCCCOP(=O)(O)OC[C@H]1O[C@@H](n2cc(C)c(=O)[nH]c2=O)C[C@@H]1OP(=O)(O)OCCCC [Nu-3, reference compound] | > 50 mg/mL |

Now look at this one.
In: # query: MIC of entry Nc1ncnc2c1ncn2[C@H]1C[C@H](OP(=O)(O)OC2CCCCC2)[C@@H](COP(=O)(O)OC2CCCCC2)O1
Out: > 5 mg/mL
